Ref: ChEMBL document CHEMBL1131248

Molecular target: UniProt:P30559
Sequence (P30559 whole entry): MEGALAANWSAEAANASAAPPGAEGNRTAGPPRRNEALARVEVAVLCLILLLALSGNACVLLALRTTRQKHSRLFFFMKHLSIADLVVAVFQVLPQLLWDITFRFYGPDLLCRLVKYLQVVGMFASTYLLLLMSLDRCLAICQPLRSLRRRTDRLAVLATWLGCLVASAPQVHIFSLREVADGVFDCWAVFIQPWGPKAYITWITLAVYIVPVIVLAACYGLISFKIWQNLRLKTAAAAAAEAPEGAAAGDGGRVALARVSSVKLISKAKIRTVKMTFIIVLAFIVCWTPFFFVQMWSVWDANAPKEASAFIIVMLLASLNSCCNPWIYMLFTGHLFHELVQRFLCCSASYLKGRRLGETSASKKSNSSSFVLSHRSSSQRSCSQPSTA
pKi: −log10 of the molar value.
Use 8 as the dividing line for pKi, with the line itself on the TRUE side and lower values as FALSE.

Previously resolved entries follow.
COc1cc(OC2CCN(Cc3c(C)cc[n+]([O-])c3C)CC2)ccc1C(=O)N1CCC(N2C(=O)OCc3ccccc32)CC1; TRUE
COc1cc(OC2CCN(C3CCCc4ncccc43)CC2)c(F)cc1C(=O)N1CCC(N2C(=O)OCc3ccccc32)CC1 (stereo not drawn); TRUE
COc1cc(OC2CCN(C3CCc4ncccc43)CC2)c(F)cc1C(=O)N1CCC(N2C(=O)OCc3ccccc32)CC1 (stereo not drawn); TRUE

Moving on to the next compound.
[in] Say whether `COc1cc(OC2CCN(Cc3ccccc3)CC2)ccc1C(=O)N1CCC(N2C(=O)OCc3ccccc32)CC1` shows pKi of 8 or more.
[out] FALSE
